target: BChE (EC 3.1.1.8, from human serum) (Homo sapiens); construct: BChE (EC 3.1.1.8, from human serum); purchased Sigma-Aldrich (St. Louis, MO, USA); host or cells: human serum; assay: biochemical; settings: at 50 μM
Sequence (P06276 29-602): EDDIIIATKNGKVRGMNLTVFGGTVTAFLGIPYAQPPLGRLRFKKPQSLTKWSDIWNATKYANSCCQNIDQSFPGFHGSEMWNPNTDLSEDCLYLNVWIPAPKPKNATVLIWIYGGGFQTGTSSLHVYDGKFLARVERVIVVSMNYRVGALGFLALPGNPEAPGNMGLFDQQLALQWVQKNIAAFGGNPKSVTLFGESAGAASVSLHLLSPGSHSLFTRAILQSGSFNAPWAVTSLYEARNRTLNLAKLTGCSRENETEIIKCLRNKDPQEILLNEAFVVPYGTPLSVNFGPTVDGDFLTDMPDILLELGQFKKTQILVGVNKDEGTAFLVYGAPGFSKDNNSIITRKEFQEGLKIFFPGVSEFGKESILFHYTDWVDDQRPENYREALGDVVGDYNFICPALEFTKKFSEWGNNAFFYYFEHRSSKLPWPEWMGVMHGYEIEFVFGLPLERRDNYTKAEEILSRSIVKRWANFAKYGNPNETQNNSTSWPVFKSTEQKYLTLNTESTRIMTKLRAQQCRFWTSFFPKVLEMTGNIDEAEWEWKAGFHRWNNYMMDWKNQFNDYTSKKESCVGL
REPORTED_METRIC: BChE IR (%) inhibition ratio

>>> numeric_value("CCNCCNC(=O)c1ccc(CN2CCc3ccccc3C2)cc1 [Compound 4]")
27.2
>>> numeric_value("O=C(Oc1ccccc1Br)c1ccc(CN2CCc3ccccc3C2)cc1 [Compound 26]")
11
>>> numeric_value("O=C(Nc1ccc(Cl)cc1F)c1ccc(CN2CCc3ccccc3C2)cc1 [Compound 21]")
38.6
>>> numeric_value("COc1ccc2[nH]cc(CCNC(=O)c3ccc(CN4CCc5ccccc5C4)cc3)c2c1 [Compound 30]")
1.1
>>> numeric_value("O=C(Sc1ccccc1Br)c1ccc(CN2CCc3ccccc3C2)cc1 [Compound 27]")
1.5
>>> numeric_value("Cc1ccc2[nH]cc(CCNC(=O)c3ccc(CN4CCc5ccccc5C4)cc3)c2c1 [Compound 29]")
6.5
>>> numeric_value("O=C(c1ccc(CN2CCc3ccccc3C2)cc1)N1CCCC1 [Compound 9]")
95.1
>>> numeric_value("O=C(Nc1ccccc1)c1ccc(CN2CCc3ccccc3C2)cc1 [Compound 15]")
23.7
>>> numeric_value("CN(C)CCNC(=O)c1ccc(CN2CCc3ccccc3C2)cc1 [Compound 3]")
36.9
>>> numeric_value("O=C(Nc1ccc(Br)cc1)c1ccc(CN2CCc3ccccc3C2)cc1 [Compound 25]")
8.1
>>> numeric_value("O=C(NCCc1c[nH]c2ccccc12)c1ccc(CN2CCc3ccccc3C2)cc1 [Compound 28]")
1.3
>>> numeric_value("CCN1CCCC1CNC(=O)c1ccc(CN2CCc3ccccc3C2)cc1 (stereo not shown) [Compound 8]")
63.0
>>> numeric_value("O=C(Nc1ccccc1F)c1ccc(CN2CCc3ccccc3C2)cc1 [Compound 16]")
74.7
>>> numeric_value("O=C(Nc1ccccc1Br)c1ccc(CN2CCc3ccccc3C2)cc1 [Compound 23]")
97.9
>>> numeric_value("CC(C)N(CCNC(=O)c1ccc(CN2CCc3ccccc3C2)cc1)C(C)C [Compound 2]")
76.4
>>> numeric_value("CCN(CC)CCNC(=O)c1ccc(CN2CCc3ccccc3C2)cc1 [Compound 1]")
68.4
>>> numeric_value("O=C(c1ccc(CN2CCc3ccccc3C2)cc1)N1CCOCC1 [Compound 10]")
11.2
>>> numeric_value("COC(CNC(=O)c1ccc(CN2CCc3ccccc3C2)cc1)OC [Compound 5]")
56.6
>>> numeric_value("O=C(NCc1ccc(F)cc1)c1ccc(CN2CCc3ccccc3C2)cc1 [Compound 19]")
83.9
>>> numeric_value("O=C(Nc1ccc(Br)cc1F)c1ccc(CN2CCc3ccccc3C2)cc1 [Compound 22]")
15.4
>>> numeric_value("O=C(Nc1cccc(Br)c1)c1ccc(CN2CCc3ccccc3C2)cc1 [Compound 24]")
35.1
>>> numeric_value("O=C(NNc1ccc(F)cc1)c1ccc(CN2CCc3ccccc3C2)cc1 [Compound 20]")
13.2
>>> numeric_value("O=C(Nc1cccc(F)c1)c1ccc(CN2CCc3ccccc3C2)cc1 [Compound 17]")
10.0
>>> numeric_value("O=C(NCCN1CCOCC1)c1ccc(CN2CCc3ccccc3C2)cc1 [Compound 6]")
19.1
>>> numeric_value("O=C(Nc1ccc(F)cc1)c1ccc(CN2CCc3ccccc3C2)cc1 [Compound 18]")
14.1
